molecular target: Monoamine transporters; serotonin & dopamine (Rattus norvegicus) (UniProt P31652+P23977); assay: Uptake ratio at serotonin to dopamine transporters from rat brain
Sequence (P23977 whole entry, looked up): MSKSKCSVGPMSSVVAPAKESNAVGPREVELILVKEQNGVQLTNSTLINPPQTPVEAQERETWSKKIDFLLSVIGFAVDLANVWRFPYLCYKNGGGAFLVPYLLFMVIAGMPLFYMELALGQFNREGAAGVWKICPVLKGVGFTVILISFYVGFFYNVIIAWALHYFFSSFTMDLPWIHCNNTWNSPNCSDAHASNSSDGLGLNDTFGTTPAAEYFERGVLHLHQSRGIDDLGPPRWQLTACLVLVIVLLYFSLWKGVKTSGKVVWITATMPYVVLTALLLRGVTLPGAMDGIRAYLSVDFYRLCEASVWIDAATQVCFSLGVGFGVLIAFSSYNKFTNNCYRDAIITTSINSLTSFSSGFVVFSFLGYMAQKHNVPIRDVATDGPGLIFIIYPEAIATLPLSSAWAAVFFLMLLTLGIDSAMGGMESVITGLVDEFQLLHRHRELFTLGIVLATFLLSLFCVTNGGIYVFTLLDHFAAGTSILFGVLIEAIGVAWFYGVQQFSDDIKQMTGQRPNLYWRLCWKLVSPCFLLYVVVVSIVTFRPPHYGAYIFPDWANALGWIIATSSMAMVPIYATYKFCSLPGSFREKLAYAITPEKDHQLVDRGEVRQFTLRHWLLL
Sequence (P31652 whole entry, looked up): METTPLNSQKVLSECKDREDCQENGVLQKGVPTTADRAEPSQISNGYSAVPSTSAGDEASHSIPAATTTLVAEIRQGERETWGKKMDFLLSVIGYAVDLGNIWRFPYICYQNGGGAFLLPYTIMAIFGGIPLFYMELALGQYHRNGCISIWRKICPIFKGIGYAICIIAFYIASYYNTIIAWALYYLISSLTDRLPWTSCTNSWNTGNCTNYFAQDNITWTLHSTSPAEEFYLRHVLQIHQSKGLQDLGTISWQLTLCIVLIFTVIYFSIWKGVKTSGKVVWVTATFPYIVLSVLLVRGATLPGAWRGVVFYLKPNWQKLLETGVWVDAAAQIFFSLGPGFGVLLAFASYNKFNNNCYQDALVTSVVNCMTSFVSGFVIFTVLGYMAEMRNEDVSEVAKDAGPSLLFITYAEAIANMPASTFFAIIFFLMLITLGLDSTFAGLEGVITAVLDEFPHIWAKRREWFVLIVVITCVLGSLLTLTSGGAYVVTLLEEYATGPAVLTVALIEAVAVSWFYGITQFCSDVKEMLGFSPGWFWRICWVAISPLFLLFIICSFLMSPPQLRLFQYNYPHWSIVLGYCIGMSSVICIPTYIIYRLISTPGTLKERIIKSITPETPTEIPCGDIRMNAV
For each record, check the reported Ratio: if it is below 0.7 write y, else write n.

OC[C@@H]1C2CCC3CCC1N(C/C2=C\c1ccc(-c2ccccc2)cc1)C3 (some centres undefined) | n
COC(=O)C1C2CCC3CCC1N(C/C2=C\c1ccc(-c2ccc(OC)cc2)cc1)C3 (centres undefined) | n
COC(=O)C1C2CCC3CCC1N(C/C2=C\c1ccc(-c2ccc(Cl)cc2Cl)cc1)C3 (centres undefined) | y
CC(=O)OCC1C2CCC3CCC1N(C/C2=C\c1ccc(-c2ccccc2)cc1)C3 (centres undefined) | y
COC(=O)C1C2CCC3CCC1N(C/C2=C\c1ccc(-c2ccc(OC)cc2)s1)C3 (centres undefined) | n
O=C(OCC1C2CCC3CCC1N(C/C2=C\c1ccc(-c2ccc(Cl)c(Cl)c2)c(Cl)c1)C3)c1ccccc1 (centres undefined) | y
COC(=O)C1C2CCC3CCC1N(C/C2=C\c1ccc(-c2ccc(C)cc2)cc1)C3 (centres undefined) | n
COC(=O)C1C2CCC3CCC1N(C/C2=C\c1ccc(-c2ccc(C#N)cc2)cc1)C3 (centres undefined) | n
COC(=O)C1C2CCC3CCC1N(C/C2=C\c1ccc(-c2ccc(I)cc2)cc1)C3 (centres undefined) | n
COC(=O)C1C2CCC3CCC1N(C/C2=C\c1ccc(-c2ccccc2)c(Cl)c1)C3 (centres undefined) | y

Hello, I'm reviewing records and need to know if Ratio of COC(=O)C1C2CCC3CCC1N(C/C2=C\c1ccc(-c2cc(Cl)cc(Cl)c2)cc1)C3 (centres undefined) is below 0.7. Could you check?
n

Lab note: Ratio threshold 0.7. Does this molecule come in strictly under it? COC(=O)C1C2CCC3CCC1N(C/C2=C\c1ccc(-c2cccs2)cc1)C3 (centres undefined)
y

Does the reported Ratio of COC(=O)C1C2CCC3CCC1N(C/C2=C\c1ccc(-c2cccc(Cl)c2)cc1)C3 (centres undefined) stay below 0.7?
n

Answer whether the molecule COC(=O)C1C2CCC3CCC1N(C/C2=C\c1ccc(-c2ccccc2)s1)C3 (centres undefined) has Ratio strictly less than 0.7
y

Take the molecule COC(=O)C1C2CCC3CCC1N(C/C2=C\c1ccc(-c2ccc(Cl)cc2)cc1)C3 (centres undefined) and say whether its Ratio is less than 0.7.
n

Ratio under 0.7? Item: COC(=O)C1C2CCC3CCC1N(C/C2=C\c1ccc(-c2ccco2)cc1)C3 (centres undefined)
n

Does the reported Ratio of the following molecule sit strictly below 0.7? COC(=O)[C@@H]1C2CCC3CCC1N(C/C2=C\c1ccc(-c2ccccc2)cc1)C3 (some centres undefined)
n

Lab log: compare recorded Ratio with 0.7; is it strictly lower for COC(=O)C1C2CCC3CCC1N(C/C2=C\c1ccc(-c2ccc(Cl)c(Cl)c2)cc1)C3 (centres undefined) ?
n

----------
target: UniProt:P31652; test: Ability to inhibit [3H]5-HT reuptake at serotonin transporter from rat brain
pKi: −log10 of the molar value.
Assign true whenever pKi does not fall below 6; assign false whenever it does.

Study these solved cases before continuing.
COC(=O)C1C2CCC3CCC1N(C/C2=C\c1ccc(-n2cccc2)cc1)C3 (centres undefined) | true
OC[C@@H]1C2CCC3CCC1N(C/C2=C\c1ccc(-c2ccccc2)cc1)C3 (some centres undefined) | false
COC(=O)C1C2CCC3CCC1N(C/C2=C\c1ccc(-c2cc(Cl)cc(Cl)c2)cc1)C3 (centres undefined) | true

Hi team, for COC(=O)[C@@H]1C2CCC3CCC1N(C/C2=C\c1ccc(-c2ccccc2)cc1)C3 (some centres undefined) , is the recorded pKi at or above 6?
true

Textbook exercise: given the entry COC(=O)C1C2CCC3CCC1N(C/C2=C\c1ccc(-c2ccc(C(F)(F)F)cc2)cc1)C3 (centres undefined) , state whether its pKi is greater than or equal to 6.
false

Does COC(=O)C1C2CCC3CCC1N(C/C2=C\c1ccc(-c2ccc(OC)cc2)cc1)C3 (centres undefined) have a reported pKi of at least 6?
false

Identify whether the reported pKi of the following compound is 6 or greater: COC(=O)C1C2CCC3CCC1N(C/C2=C\c1ccc(-c2cccc(Cl)c2)cc1)C3 (centres undefined)
true

----------
target: Sodium-dependent dopamine transporter (Rattus norvegicus, UniProt P23977); experiment: Ability to inhibit [3H]DA reuptake at dopamine transporter from rat brain
pKi: −log10 of the molar value.
Please mark 1 if the recorded pKi is equal to or greater than 6, and 0 if it falls below.

A selection of reference data follows.
COC(=O)C1C2CCC3CCC1N(C/C2=C\c1ccc(-n2cccc2)cc1)C3 (stereo not given) | 1
COC(=O)C1C2CCC3CCC1N(C/C2=C\c1ccc(-c2cccs2)cc1)C3 (stereo not given) | 1
COC(=O)C1C2CCC3CCC1N(C/C2=C\c1ccc(-c2ccc(Cl)c(Cl)c2)cc1)C3 (stereo not given) | 1

Check if pKi >= 6 (inclusive). Item: COC(=O)C1C2CCC3CCC1N(C/C2=C\c1ccc(-c2ccc(OC)cc2)s1)C3 (stereo not given)
1

Could you verify whether the entry COC(=O)C1C2CCC3CCC1N(C/C2=C\c1ccc(-c2ccc(Cl)cc2Cl)cc1)C3 (stereo not given) shows pKi of no less than 6?
0

----------
molecular target: Monoamine transporters; Norepinephrine & serotonin (Rattus norvegicus) (UniProt P31652+Q9WTR4); assay: Uptake ratio at norepinephrine to serotonin transporters from rat brain
For each record, write down the corresponding Ratio.

Solved cases below.
COC(=O)C1C2CCC3CCC1N(C/C2=C\c1ccc(-c2cc(Cl)cc(Cl)c2)cc1)C3 (stereo unspecified) | 0.16
CC(=O)OCC1C2CCC3CCC1N(C/C2=C\c1ccc(-c2ccccc2)cc1)C3 (stereo unspecified) | 1.24

For the 3 molecules below, give their Ratio values.
1. COC(=O)C1C2CCC3CCC1N(C/C2=C\c1ccc(-c2ccc(C)cc2)cc1)C3 (stereo unspecified)
2. COC(=O)C1C2CCC3CCC1N(C/C2=C\c1ccc(-c2ccc(Cl)c(Cl)c2)cc1)C3 (stereo unspecified)
3. COC(=O)C1C2CCC3CCC1N(C/C2=C\c1ccc(-n2cccc2)cc1)C3 (stereo unspecified)

[0.02, 0.04, 0.31]

Record Ratio per entry; entries follow.
1. COC(=O)C1C2CCC3CCC1N(C/C2=C\c1ccc(-c2ccccc2)s1)C3 (stereo unspecified)
2. COC(=O)C1C2CCC3CCC1N(C/C2=C\c1ccc(-c2ccc(Cl)cc2)cc1)C3 (stereo unspecified)

1: 0.19; 2: 0.59

# batch: return Ratio for each of the 4 molecules below
1. COC(=O)C1C2CCC3CCC1N(C/C2=C\c1ccc(-c2ccccc2)c(Cl)c1)C3 (stereo unspecified)
2. COC(=O)C1C2CCC3CCC1N(C/C2=C\c1ccc(-c2ccc(OC)cc2)cc1)C3 (stereo unspecified)
3. COC(=O)C1C2CCC3CCC1N(C/C2=C\c1ccc(-c2ccsc2)cc1)C3 (stereo unspecified)
4. COC(=O)[C@@H]1C2CCC3CCC1N(C/C2=C\c1ccc(-c2ccccc2)cc1)C3 (stereo partly specified)

[2.71, 0, 0.14, 0.02]
